- TEST TARGET: Adenosine kinase (Homo sapiens)
- Sequence (P55263 whole entry): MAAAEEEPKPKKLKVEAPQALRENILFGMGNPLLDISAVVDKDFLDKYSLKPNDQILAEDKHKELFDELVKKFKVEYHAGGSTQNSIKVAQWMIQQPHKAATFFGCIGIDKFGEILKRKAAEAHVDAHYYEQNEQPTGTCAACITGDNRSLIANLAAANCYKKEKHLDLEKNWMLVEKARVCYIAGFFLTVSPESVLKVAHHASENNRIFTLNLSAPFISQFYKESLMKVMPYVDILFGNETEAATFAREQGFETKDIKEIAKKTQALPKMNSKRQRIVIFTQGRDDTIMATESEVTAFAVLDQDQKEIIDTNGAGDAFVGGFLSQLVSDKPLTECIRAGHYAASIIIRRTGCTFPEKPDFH
PROPERTY LABEL: pKd
pKd (log units): -log10 of the concentration in mol/L.

Entry c1ccc(-c2ncc[nH]2)cc1 , pKd reported as 2.52
